As shown below, each of these compounds has a reported GI50 value.
System: DLD-1
PROTOCOL DETAILS: Cytotoxicity against human DLD1 cells after 72 hrs by MTT assay
Format: functional
STUDY CONDITIONS: DLD-1, 72 h
Your answer is read as nM, so omit the unit and give the number.

structure_smiles=C[C@@H]1[C@@H](n2cc(-c3ccccc3C(F)(F)F)nn2)O[C@@H]2O[C@]3(C)CC[C@H]4[C@H](C)CC[C@@H]1[C@@]24OO3 property_measured=GI50 measurement=1070
structure_smiles=Cc1ccc(-c2cn([C@@H]3O[C@@H]4O[C@]5(C)CC[C@H]6[C@H](C)CC[C@@H]([C@H]3C)[C@@]46OO5)nn2)cc1 property_measured=GI50 measurement=400

Next, consider the following compound.
Report GI50 for C[C@@H]1[C@@H](n2cc(-c3ccccc3)nn2)O[C@@H]2O[C@]3(C)CC[C@H]4[C@H](C)CC[C@@H]1[C@@]24OO3 please.
280

----------
Test system: SiHa
PROTOCOL DETAILS: Cytotoxicity against human SiHa cells after 72 hrs by MTT assay
Assay type: functional
Here, each record is paired with measured GI50 data.
Form entry: enter the amount, then its unit.

For orientation, consider the following solved cases.
structure_smiles=C[C@H]1[C@H](n2nncc2-c2ccccc2C(F)(F)F)O[C@@H]2O[C@]3(C)CC[C@H]4[C@H](C)CC[C@@H]1[C@@]24OO3 property_measured=GI50 measurement="80 nM"
structure_smiles=C[C@H]1[C@H](n2nncc2-c2ccc(F)cc2)O[C@@H]2O[C@]3(C)CC[C@H]4[C@H](C)CC[C@@H]1[C@@]24OO3 property_measured=GI50 measurement="80 nM"
structure_smiles=COc1ccc(-c2cn([C@@H]3O[C@@H]4O[C@]5(C)CC[C@H]6[C@H](C)CC[C@@H]([C@H]3C)[C@@]46OO5)nn2)cc1 property_measured=GI50 measurement="360 nM"
structure_smiles=CCCCCc1ccc(-c2cn([C@@H]3O[C@@H]4O[C@]5(C)CC[C@H]6[C@H](C)CC[C@@H]([C@H]3C)[C@@]46OO5)nn2)cc1 property_measured=GI50 measurement="80 nM"
structure_smiles=C[C@H]1[C@H](n2cc(-c3ccccc3)nn2)O[C@@H]2O[C@]3(C)CC[C@H]4[C@H](C)CC[C@@H]1[C@@]24OO3 property_measured=GI50 measurement="730 nM"

# input for lookup
Quick one: GI50 for C[C@@H]1[C@@H](n2cc(-c3ccccc3C(F)(F)F)nn2)O[C@@H]2O[C@]3(C)CC[C@H]4[C@H](C)CC[C@@H]1[C@@]24OO3 ?
620 nM

The reported numbers originate from ChEMBL document CHEMBL1177810.
